Test system: Two-spotted spider mite (Tetranychus urticae)
procedure_text: Acaricidal action on two-spotted spider mite (kidney bean leaf disk spray)
Assay type: in vivo
conditions_used: 500 ppm, adult females, 25° C., two days after treatment
endpoint_name: acaricidal efficacy (corrected mortality rate), activity level

Some compounds with known acaricidal efficacy (corrected mortality rate), activity level results, for comparison:
CCS(=O)(=O)n1c(-n2cc(/C=C/C(=O)OCc3ccc(C(F)(F)F)cc3)c(C(F)(F)F)n2)nc2ccccc21 ... D or higher
CCS(=O)(=O)n1c(-n2cnc(COc3ccc(OC(F)(F)F)cc3)c2)nc2ccccc21 ... D or higher
CCS(=O)(=O)n1c(-n2cc(C(=O)OC(C)(C)C)c(/C=C/C(=O)OC(C)(C)C)n2)nc2ccccc21 ... D or higher
CCS(=O)(=O)n1c(-n2cc(C(=O)OC(C)(C)C)c(C=C(C)C)n2)nc2ccccc21 ... D or higher
CCS(=O)(=O)n1c(-n2cc(C(=O)OC(C)C)c(C(F)(F)F)n2)nc2ccccc21 ... D or higher

Need acaricidal efficacy (corrected mortality rate), activity level, item `CCS(=O)(=O)n1c(-n2cc(C(=O)OCC(C)(C)C)c(C(F)(F)F)n2)nc2ccccc21`
D or higher

And then `CCS(=O)(=O)n1c(-n2cc(S(=O)(=O)N(C)C)c(C(F)(F)F)n2)nc2ccccc21` , what is it?
D or higher

And then `CCS(=O)(=O)n1c(-n2cc(C#CCOCC(F)(F)F)c(C(F)(F)F)n2)nc2ccccc21` , what is it?
D or higher
